Consider the following molecules and their measured IC50 readings.
Biological target: Isocitrate dehydrogenase [NADP] cytoplasmic (Homo sapiens)
Measured Property: IC50

# Molecule, Value Reported
rows = [
    ("Cc1ccccc1C(C(=O)NC1CCCCC1)N(C(=O)Cc1c[nH]c2ccccc12)c1cccc(F)c1 (racemic)", "6.3 µM"),
    ("Cc1ccccc1C(C(=O)NC1CCCCC1)N(C(=O)Cn1c(C)nc2ccccc21)c1cccc(F)c1 (racemic)", "> 100 µM"),
    ("Cc1ccccc1C(C(=O)NC1CCCCC1)N(C(=O)Cn1ccc2ccccc21)c1cccc(F)c1 (racemic)", "> 100 µM"),
    ("Cc1ccccc1C(C(=O)NC1CCCCC1)N(C(=O)Cn1ccnc1C)c1cccc(F)c1 (racemic)", "> 100 µM"),
    ("Cc1ccccc1C(C(=O)NC1CCCC1)N(C(=O)Cc1cccs1)c1cccc(F)c1 (stereo not given)", "7.7 µM"),
]

---

Biological target: Isocitrate dehydrogenase [NADP] cytoplasmic (Homo sapiens, UniProt O75874, R132H)
Sequence (O75874 2-414 R132H limits assumed): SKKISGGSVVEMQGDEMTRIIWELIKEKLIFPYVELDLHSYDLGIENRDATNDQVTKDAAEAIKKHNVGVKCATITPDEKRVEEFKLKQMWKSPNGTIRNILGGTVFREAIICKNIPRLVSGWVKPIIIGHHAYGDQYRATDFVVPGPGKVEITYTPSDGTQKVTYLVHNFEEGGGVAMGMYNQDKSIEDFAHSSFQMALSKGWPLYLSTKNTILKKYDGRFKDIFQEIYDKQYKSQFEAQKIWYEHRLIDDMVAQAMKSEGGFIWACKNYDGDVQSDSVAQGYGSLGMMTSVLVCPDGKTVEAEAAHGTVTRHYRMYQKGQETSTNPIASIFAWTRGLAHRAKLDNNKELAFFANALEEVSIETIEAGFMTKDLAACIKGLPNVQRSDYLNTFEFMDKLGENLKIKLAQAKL
Test: Inhibition of IDH1 R132H mutant using alpha-ketoglutarate as substrate after 60 mins by resazurin-based fluorimetric analysis
pIC50: −log10 of the molar value.
Consider the following compounds and their measured pIC50 readings.
Measured Property: pIC50

# Compound, Target Or Test System, Comparison Sign, Value Reported
rows = [
    ("Cc1ccccc1C(C(=O)NC1CCCCC1)N(C(=O)Cc1c[nH]c2ccccc12)c1cccc(F)c1 (racemic)", "Isocitrate dehydrogenase [NADP] cytoplasmic (Homo sapiens, UniProt O75874, R132H)", "=", 7.22),
    ("O=C(NC1CCCCC1)[C@@H](c1ccccc1)N(C(=O)Cc1cccs1)c1cccc(F)c1", "Isocitrate dehydrogenase [NADP] cytoplasmic (Homo sapiens, UniProt O75874, R132H)", "<", 4.96),
    ("Cc1ccccc1C(C(=O)NC1CCCCC1)N(C(=O)CN1CCNCC1)c1cccc(F)c1 (racemic)", "Isocitrate dehydrogenase [NADP] cytoplasmic (Homo sapiens, UniProt O75874, R132H)", "=", 5.25),
    ("Cc1ccccc1C(C(=O)NC1CCCCC1)N(CCc1cccs1)c1cccc(F)c1 (racemic)", "Isocitrate dehydrogenase [NADP] cytoplasmic (Homo sapiens, UniProt O75874, R132H)", "<", 4.00),
    ("Cc1ccccc1C(C(=O)NC1CCCCC1)N(C(=O)CN1CCc2ccccc21)c1cccc(F)c1 (racemic)", "Isocitrate dehydrogenase [NADP] cytoplasmic (Homo sapiens, UniProt O75874, R132H)", "=", 6.85),
    ("Cc1ccccc1C(C(=O)NC1CCCCC1)N(C(=O)CCl)c1cccc(F)c1 (racemic)", "Isocitrate dehydrogenase [NADP] cytoplasmic (Homo sapiens, UniProt O75874, R132H)", "=", 6.05),
    ("Cc1ccccc1C(C(=O)NC1CCCCC1)N(C(=O)Cn1cccn1)c1cccc(F)c1 (racemic)", "Isocitrate dehydrogenase [NADP] cytoplasmic (Homo sapiens, UniProt O75874, R132H)", "=", 6.38),
    ("Cc1ccccc1C(C(=O)NC1CCCCC1)N(C(=O)CNC1CCCC1)c1cccc(F)c1 (racemic)", "Isocitrate dehydrogenase [NADP] cytoplasmic (Homo sapiens, UniProt O75874, R132H)", "=", 6.35),
    ("Cc1ccccc1C(C(=O)NC1CCCCC1)N(C(=O)CNC1CC1)c1cccc(F)c1 (racemic)", "Isocitrate dehydrogenase [NADP] cytoplasmic (Homo sapiens, UniProt O75874, R132H)", "=", 6.72),
    ("Cc1ccccc1C(C(=O)NCc1ccccc1)N(C(=O)Cc1cccs1)c1cccc(F)c1 (racemic)", "Isocitrate dehydrogenase [NADP] cytoplasmic (Homo sapiens, UniProt O75874, R132H)", "=", 5.74),
]

---

Target: Isocitrate dehydrogenase [NADP] cytoplasmic (Homo sapiens, UniProt O75874, R132H)
Assay: Inhibition of IDH1 R132H mutant expressed in human U87 cells assessed as inhibition of 2-hydroxyglutarate production after 48 hrs by LC/MS analysis
Type: cell-based, U-87MG ATCC
pIC50: −log10 of the molar value.

# Molecule, pIC50
records = [
    ("Cc1ccccc1C(C(=O)NC1CCCCC1)N(C(=O)Cc1c[nH]c2ccccc12)c1cccc(F)c1 (racemic)", 6.44),
    ("Cc1ccccc1C(C(=O)NC1CCCCC1)N(C(=O)Cn1ccc2ccccc21)c1cccc(F)c1 (racemic)", 6.43),
    ("Cc1ccccc1C(C(=O)NC1CCCCC1)N(C(=O)Cc1ccncc1)c1cccc(F)c1 (racemic)", 6.68),
    ("Cc1ccccc1C(C(=O)NC1CCCCC1)N(C(=O)Cn1c(C)nc2ccccc21)c1cccc(F)c1 (racemic)", 6.62),
    ("Cc1ccccc1C(C(=O)NC1CCCCC1)N(C(=O)Cc1cscn1)c1cccc(F)c1 (racemic)", 6.54),
    ("Cc1ccccc1C(C(=O)NC1CCCC1)N(C(=O)Cc1cccs1)c1cccc(F)c1 (configuration not stated)", 6.24),
    ("Cc1ccccc1C(C(=O)NC1CCCCC1)N(C(=O)Cc1cccs1)c1cccc(F)c1 (racemic)", 6.72),
]

---

Assay: Hepatic extraction ratio in rat liver microsomes
Format: ADME, Microsome
Conditions: read-out: ERH

# Compound, hepatic extraction ratio
rows = [
    ("Cc1ccccc1C(C(=O)NC1CCCCC1)N(C(=O)Cn1ccnc1C)c1cccc(F)c1 (racemic)", 0.85),
]

---

Target: Isocitrate dehydrogenase [NADP] cytoplasmic (Homo sapiens, UniProt O75874, R132C)
Sequence (O75874 2-414 R132C limits assumed): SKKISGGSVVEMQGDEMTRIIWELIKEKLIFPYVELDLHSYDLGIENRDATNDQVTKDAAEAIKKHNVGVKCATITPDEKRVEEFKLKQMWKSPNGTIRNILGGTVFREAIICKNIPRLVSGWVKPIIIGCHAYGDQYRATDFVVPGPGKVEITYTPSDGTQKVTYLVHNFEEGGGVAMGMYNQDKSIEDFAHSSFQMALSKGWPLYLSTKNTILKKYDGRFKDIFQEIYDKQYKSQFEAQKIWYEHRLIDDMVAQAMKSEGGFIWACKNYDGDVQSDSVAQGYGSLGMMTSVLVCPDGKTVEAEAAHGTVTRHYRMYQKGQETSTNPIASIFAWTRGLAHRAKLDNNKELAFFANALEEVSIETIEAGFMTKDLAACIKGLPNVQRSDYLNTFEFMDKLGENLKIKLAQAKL
Test: Inhibition of IDH1 R132C mutant using alpha-ketoglutarate as substrate after 60 mins by resazurin-based fluorimetric analysis
Consider the following compounds and their measured IC50 readings.

# Compound, IC50
measured = [
    ("Cc1ccccc1C(C(=O)NC1CCCCC1)N(C(=O)Cn1ccnc1C)c1cccc(F)c1 (racemic)", "160 nM"),
    ("Cc1ccccc1C(C(=O)NC1CCCC1)N(C(=O)Cc1cccs1)c1cccc(F)c1 (centres undefined)", "50 nM"),
    ("Cc1ccccc1C(C(=O)NC1CCCCC1)N(C(=O)Cc1c[nH]c2ccccc12)c1cccc(F)c1 (racemic)", "30 nM"),
    ("Cc1ccccc1C(C(=O)NC1CCCCC1)N(C(=O)Cc1ccncc1)c1cccc(F)c1 (racemic)", "50 nM"),
]
